Value source: PubChem BioAssay AID1996

Conditions: buffer; pH 7.4; 200.0 µM
Give solubility kinetic for every item shown.

Sample answers from the record:
compound=O=C(N/C(=C/c1cccnc1)C(=O)N1CCOCC1)c1ccccc1Cl test_result="> 55.8 µg/mL"
compound=COc1ccc(-n2ccc(=O)c(C(=O)O)n2)cc1 test_result="> 36.9 µg/mL"
compound=O=C(Nc1cccc(F)c1)Nc1ccc2c(c1)CCC2 test_result="< 0.3 µg/mL"
compound="Cc1ccc(NC(=O)CCC2CC(C)(C)OC2=O)cc1 (stereo not given)" test_result="> 41.3 µg/mL"
compound="Cc1ccc(C(=O)NC(C)c2ccc(S(N)(=O)=O)cc2)s1 (stereo not given)" test_result="> 48.7 µg/mL"

Give me solubility kinetic for each of these compounds, listed below.
1. O=C(Nc1ccc(F)cc1)c1cncs1
2. O=C(Nc1ccc(N2CCCC2)cc1)c1cccc(Cl)c1
3. CC(=O)NCC(=O)NNC1CC(=O)N(c2cccc(Cl)c2)C1=O (stereo not given)
4. O=C(CCc1ccccc1)NC(=S)Nc1cccc(C(=O)O)c1
5. Cc1ccc(NC(=O)c2ccc(OCc3c(C)noc3C)cc2)cc1

Ans:
> 33.3 µg/mL
< 0.3 µg/mL
> 50.8 µg/mL
> 49.3 µg/mL
< 0.4 µg/mL
